- system: Gal(b1-4)GlcNAc(b1-3)[Gal(b1-4)GlcNAc(b1-6)]Gal(b1-4)GlcNAc
- assay_comment: glycan array binding signal (z-score within array); higher = stronger binding
- run_conditions: glycan notation: IUPAC condensed, linker removed
The full list was thinned out, with the strongest signals kept by preference.
Would you kindly list glycan array binding signal (z-score) for each of these binders?
One number for each entry.

binder	measurement
SBD-G4S3-Fc (protein) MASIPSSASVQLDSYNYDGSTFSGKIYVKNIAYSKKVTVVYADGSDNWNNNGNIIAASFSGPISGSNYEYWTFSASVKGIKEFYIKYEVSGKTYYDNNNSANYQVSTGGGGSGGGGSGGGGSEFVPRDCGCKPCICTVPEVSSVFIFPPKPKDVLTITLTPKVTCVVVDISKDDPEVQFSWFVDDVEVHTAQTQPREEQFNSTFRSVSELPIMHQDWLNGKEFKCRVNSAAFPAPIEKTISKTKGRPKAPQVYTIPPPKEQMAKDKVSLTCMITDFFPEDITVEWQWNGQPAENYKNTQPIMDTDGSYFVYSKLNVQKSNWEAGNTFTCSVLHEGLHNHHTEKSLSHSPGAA	-0.023

Consider the record given below.
(Q) Give me measured glycan array binding signal (z-score), please, for this binder: ECL (Erythrina cristagalli), Q6YD91 (protein) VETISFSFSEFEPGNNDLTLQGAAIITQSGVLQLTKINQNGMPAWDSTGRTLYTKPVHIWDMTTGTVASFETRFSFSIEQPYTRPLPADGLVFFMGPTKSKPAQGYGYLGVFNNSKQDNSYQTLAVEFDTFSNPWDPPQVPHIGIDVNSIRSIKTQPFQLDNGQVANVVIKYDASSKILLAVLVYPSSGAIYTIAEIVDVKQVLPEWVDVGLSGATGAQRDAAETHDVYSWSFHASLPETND
(A) 3.6
